Target or system Histone deacetylase 3 (Homo sapiens); metric IC50; compiled from varied reports.

Example results:
item_smiles	IC50
Nc1ccc(-c2ccc(F)cc2)cc1NC(=O)c1ncc(N2CCNCC2)s1	10 to 500 nM
Cc1ccc(NC(=O)N2CCC(Nc3ncc(C(=O)NO)cn3)(c3ccccc3)CC2)cc1	693 nM
Nc1ccc(-c2ccncc2)cc1NC(=O)c1nc(N2CCNCC2)cs1	> 500 nM

Name the value of IC50 reported for `Nc1ccc(-c2ccccc2)cc1NC(=O)c1ncc(NCCOCc2cccnc2)cn1` when tested on Histone deacetylase 3 (Homo sapiens).
230 to 240 nM

====

A compilation of published IC50 results with UniProtKB O15379.

Give IC50 for this entry on UniProtKB O15379: `Nc1ccc(-c2ccoc2)cc1NC(=O)c1cnc(N2CCNCC2)cn1`
0.01 to 0.5 µM

Identify measured IC50 obtained with UniProtKB O15379 for `CCOC(=O)N1CCC(Nc2ncc(C(=O)NO)cn2)(c2ccccc2)CC1` .
1 µM

System UniProtKB O15379. Read-out IC50. Item `Nc1nc2cc(-c3nnn(Cc4ccc(-c5nnc(C(F)F)o5)cn4)n3)ccc2o1` . Report value.
> 30 µM

Tell me its IC50 on UniProtKB O15379: `Cn1cc(Cc2ccc(F)cc2)c2cc(C(=O)NO)ccc21`
1.5 µM

Please respond with reported IC50 (system UniProtKB O15379) for `Nc1ccc(-c2cccs2)cc1NC(=O)c1ccc(NC2CCN(C(=O)N3CCNCC3)CC2)cn1` .
0.05 to 0.06 µM

Consider the compound `O=C(NO)c1cnc(NC2(c3ccccc3)CCN(S(=O)(=O)c3ccc(Cl)cc3)CC2)nc1` tested on UniProtKB O15379; state its IC50.
3.19 µM

Fetch value of IC50 on UniProtKB O15379 for `CCNc1nc2ccc(-c3cn(Cc4ccc(-c5nnc(C(F)F)o5)cn4)nn3)cc2[nH]1` .
> 30 µM

State measured IC50 of the compound `Nc1ccc(-c2ccc(F)cc2)cc1NC(=O)c1ccc(N2CCNCC2)s1` with UniProtKB O15379.
0.01 to 0.5 µM

Find the measured IC50 of `Nc1ccc(-c2ccco2)cc1NC(=O)c1cnc(N2CCNCC2)o1` with UniProtKB O15379 as test system.
> 0.5 µM

Param request: IC50 | system UniProtKB O15379 | item `Nc1cc(F)ccc1NC(=O)c1ccc(NC(=O)CCCc2cccnc2)cc1`
1.74 µM

Enter recorded IC50 with UniProtKB O15379 for `COCCNc1ccc2cc(C(=O)Nc3cc(-c4cccs4)ccc3N)cnc2c1` here.
0.75 to 0.76 µM

State IC50 (UniProtKB O15379) of `Nc1ccc(-c2ccccc2)cc1NC(=O)c1ccc2c(c1)ncn2CCN1CCOCC1` .
0.45 to 0.46 µM

Answer briefly: IC50 recorded on UniProtKB O15379 for `Nc1ccc(-c2cnn(Cc3ccc(-c4nnc(C(F)F)o4)cn3)c2)cn1`
> 30 µM
